melting point by entry:
Structures can show the parent of a compound that is named as a salt.

Worked cases, answers included:
O=C(Nc1ccc(F)cc1F)C(=O)c1c2n(c3ccccc13)CCNCC2; 184.5 to 185.5 °C
NCCc1c2n(c3ccccc13)CCNCC2; 77 to 80 °C
Brc1ccc2cc3n(c2c1)CCNCC3 (as salt: hydrochloride); 292 to 295 °C

Supply measured melting point of "O=Cc1c2n(c3ccccc13)CCNCC2" in your reply. 167 to 168 °C

Supply measured melting point of "NC(=O)C(=O)c1c2n(c3ccccc13)CCNCC2" in your reply. 214 to 215 °C

Supply measured melting point of "O=Cc1c2n(c3cc(Br)ccc13)CCNCC2" in your reply. 186 to 188 °C

Supply measured melting point of "N#Cc1c2n(c3ccccc13)CCNCC2" in your reply. 161 to 164 °C
